B1: F1*; the commonest letter at each place (parent)
chain: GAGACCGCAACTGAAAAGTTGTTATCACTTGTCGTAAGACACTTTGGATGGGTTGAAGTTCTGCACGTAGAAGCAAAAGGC

Variants of: B1
METHOD DESCRIPTION: fraction ligated after 30 min (ligated reads / total reads); higher = more ligase activity
APPLIED CONDITIONS: with F1*sub RNA substrate (template-directed ligation), 42 °C
PROPERTY NAME: fraction ligated

Q) Given GAGACCGCAACTGAAAAGTTGTTATCACTTGTAGTAAGACACTTTGGATGGGTTGATGTTCTGCACGTAGAAGCAAAAGGC [C33A A57T] , state its recorded fraction ligated.
A) 0.849

Q) What do we get for GAGACCGCAACTGAAAAGTTGTTATCACTTGTCGTAAGACACTTAGAATGGGTTGAAGTTCTGCACGTAGAAGCAAAAGGC [T45A G47A] ?
A) 0.478

Q) What do we get for GAGACCGCAACTGAAAAGTTGTTATCACTTGTCGTAAGACACCTTGGATGGGTTAAAGTTCTGCACGTAGAAGCAAAAGGC [T43C G55A] ?
A) 0.803

Q) What do we get for GAGACCGCAACTGAAAAGTTGTTATCACTTGTCGTACGACACTTTGGAAGGGTTGAAGTTCTGCACGTAGAAGCAAAAGGC [A37C T49A] ?
A) 0.778

Q) What do we get for GAGACCGCAACTGAAAAGTTGTTATCACTTGGGGTAAGACACTTTGGATGGGTTGAAGTTCTGCACGTAGAAGCAAAAGGC [T32G C33G] ?
A) 0.828

Q) What do we get for GAGACCGCAACTGAAAAGTTGTTATCACTTGTCGTATGCCACTTTGGATGGGTTGAAGTTCTGCACGTAGAAGCAAAAGGC [A37T A39C] ?
A) 0.785

Q) What do we get for GAGACCGCAACTGAAAAGTTGTTATCACTTGTCATAAGACACTGTGGATGGGTTGAAGTTCTGCACGTAGAAGCAAAAGGC [G34A T44G] ?
A) 0.844

Q) What do we get for GAGACCGCAACTGAAAAGTTGTTATCAATTGTCGTAAGACACTTTGGACGGGTTGAAGTTCTGCACGTAGAAGCAAAAGGC [C28A T49C] ?
A) 0.605

Q) What do we get for GAGACCGCAACTGAAAAGTTGTTATCACCTGTCGTAGGACACTTTGGATGGGTTGAAGTTCTGCACGTAGAAGCAAAAGGC [T29C A37G] ?
A) 0.824

Q) What do we get for GAGACCGCAACTGAAAAGTTGTTATCACTTGTCGTAAGACACTTTTGTTGGGTTGAAGTTCTGCACGTAGAAGCAAAAGGC [G46T A48T] ?
A) 0.144

Q) What do we get for GAGACCGCAACTGAAAAGTTGTAATCACTTGTCGTAAGACTCTTTGGATGGGTTGAAGTTCTGCACGTAGAAGCAAAAGGC [T23A A41T] ?
A) 0.807

Q) What do we get for GAGACCGCAACTGAAAAGTTGTTATCACTCGTCGTAAGACACTCTGGATGGGTTGAAGTTCTGCACGTAGAAGCAAAAGGC [T30C T44C] ?
A) 0.803

Q) What do we get for GAGACCGCAACTGAAAAGTTGTTATCACTTGTCGTAAGACACTATTGATGGGTTGAAGTTCTGCACGTAGAAGCAAAAGGC [T44A G46T] ?
A) 0.81

Q) What do we get for GAGACCGCAACTGAAAAGTTGTTATCACTTGTAGTAAGACACTTTGGGTGGGTTGAAGTTCTGCACGTAGAAGCAAAAGGC [C33A A48G] ?
A) 0.79

Q) What do we get for GAGACCGCAACTGAAAAGTTGTTATCACATGTAGTAAGACACTTTGGATGGGTTGAAGTTCTGCACGTAGAAGCAAAAGGC [T29A C33A] ?
A) 0.852

Q) What do we get for GAGACCGCAACTGAAAAGTTGTTATCACTTGTAGTAAGACACTTTGGATGGGTTGAGGTTCTGCACGTAGAAGCAAAAGGC [C33A A57G] ?
A) 0.868

Q) What do we get for GAGACCGCAACTGAAAAGTTGTTATCACTTGTCGAAAGAAACTTTGGATGGGTTGAAGTTCTGCACGTAGAAGCAAAAGGC [T35A C40A] ?
A) 0.811

Q) What do we get for GAGACCGCAACTGAAAAGTTGTTAACACTTGTCGTAAGACACTGTGGATGGGTTGAAGTTCTGCACGTAGAAGCAAAAGGC [T25A T44G] ?
A) 0.117

Q) What do we get for GAGACCGCAACTGAAAAGTTGTTATCACTTGTCGTAAAACACTTCGGATGGGTTGAAGTTCTGCACGTAGAAGCAAAAGGC [G38A T45C] ?
A) 0.696

Q) What do we get for GAGACCGCAACTGAAAAGTTGTTATCACTTGTCGTAAGACGCTTTGGATGGGTTAAAGTTCTGCACGTAGAAGCAAAAGGC [A41G G55A] ?
A) 0.785

Q) What do we get for GAGACCGCAACTGAAAAGTTGTTATCAAGTGTCGTAAGACACTTTGGATGGGTTGAAGTTCTGCACGTAGAAGCAAAAGGC [C28A T29G] ?
A) 0.814

Q) What do we get for GAGACCGCAACTGAAAAGTTGTTATCACTTGTCCTAAGACACTTTGGATCGGTTGAAGTTCTGCACGTAGAAGCAAAAGGC [G34C G50C] ?
A) 0.329

Q) What do we get for GAGACCGCAACTGAAAAGTTGTTCTCACTTGTCATAAGACACTTTGGATGGGTTGAAGTTCTGCACGTAGAAGCAAAAGGC [A24C G34A] ?
A) 0.727

Q) What do we get for GAGACCGCAACTGAAAAGTTGTTATCACTTCTCGTATGACACTTTGGATGGGTTGAAGTTCTGCACGTAGAAGCAAAAGGC [G31C A37T] ?
A) 0.79

Q) What do we get for GAGACCGCAACTGAAAAGTTGTAATCACTTGTCGTAAGACACTTTGGATGGGTTTAAGTTCTGCACGTAGAAGCAAAAGGC [T23A G55T] ?
A) 0.783

Q) What do we get for GAGACCGCAACTGAAAAGTTGTAATCATTTGTCGTAAGACACTTTGGATGGGTTGAAGTTCTGCACGTAGAAGCAAAAGGC [T23A C28T] ?
A) 0.753

Q) What do we get for GAGACCGCAACTGAAAAGTTGTTATCATTTGTGGTAAGACACTTTGGATGGGTTGAAGTTCTGCACGTAGAAGCAAAAGGC [C28T C33G] ?
A) 0.809

Q) What do we get for GAGACCGCAACTGAAAAGTTGTTATCACTTGTCGTAGGACGCTTTGGATGGGTTGAAGTTCTGCACGTAGAAGCAAAAGGC [A37G A41G] ?
A) 0.822

Q) What do we get for GAGACCGCAACTGAAAAGTTGTTATCACTTGTCGTAAGACACTTTGCATGGGTTGAGGTTCTGCACGTAGAAGCAAAAGGC [G47C A57G] ?
A) 0.0599

Q) What do we get for GAGACCGCAACTGAAAAGTTGTTATCACTTGTCGTAAGACACTTTAGATTGGTTGAAGTTCTGCACGTAGAAGCAAAAGGC [G46A G50T] ?
A) 0.232

Q) What do we get for GAGACCGCAACTGAAAAGTTGTTATCACTTGTGGTAAGACACTTTGGACGGGTTGAAGTTCTGCACGTAGAAGCAAAAGGC [C33G T49C] ?
A) 0.312

Q) What do we get for GAGACCGCAACTGAAAAGTTGTTATCACTTGTCGTAAGACTTTTTGGATGGGTTGAAGTTCTGCACGTAGAAGCAAAAGGC [A41T C42T] ?
A) 0.848

Q) What do we get for GAGACCGCAACTGAAAAGTTGTTATCACTGTTCGTAAGACACTTTGGATGGGTTGAAGTTCTGCACGTAGAAGCAAAAGGC [T30G G31T] ?
A) 0.853

Q) What do we get for GAGACCGCAACTGAAAAGTTGTTATCACTTGTCGTAAGACATCTTGGATGGGTTGAAGTTCTGCACGTAGAAGCAAAAGGC [C42T T43C] ?
A) 0.828

Q) What do we get for GAGACCGCAACTGAAAAGTTGTTATAACTTGTCGTAAGACACTTTGGAAGGGTTGAAGTTCTGCACGTAGAAGCAAAAGGC [C26A T49A] ?
A) 0.216

Q) What do we get for GAGACCGCAACTGAAAAGTTGTTATCACTTGTCTTAGGACACTTTGGATGGGTTGAAGTTCTGCACGTAGAAGCAAAAGGC [G34T A37G] ?
A) 0.829

Q) What do we get for GAGACCGCAACTGAAAAGTTGTTATCACCTGTCGTAAGACACCTTGGATGGGTTGAAGTTCTGCACGTAGAAGCAAAAGGC [T29C T43C] ?
A) 0.802

Q) What do we get for GAGACCGCAACTGAAAAGTTGTTATCACTTGTCTTAAGACCCTTTGGATGGGTTGAAGTTCTGCACGTAGAAGCAAAAGGC [G34T A41C] ?
A) 0.755

Q) What do we get for GAGACCGCAACTGAAAAGTTGTTATCCATTGTCGTAAGACACTTTGGATGGGTTGAAGTTCTGCACGTAGAAGCAAAAGGC [A27C C28A] ?
A) 0.807

Q) What do we get for GAGACCGCAACTGAAAAGTTGTTATCACGTGACGTAAGACACTTTGGATGGGTTGAAGTTCTGCACGTAGAAGCAAAAGGC [T29G T32A] ?
A) 0.821

Q) What do we get for GAGACCGCAACTGAAAAGTTGTTATCACTTGGCGAAAGACACTTTGGATGGGTTGAAGTTCTGCACGTAGAAGCAAAAGGC [T32G T35A] ?
A) 0.814

Q) What do we get for GAGACCGCAACTGAAAAGTTGTTATCTCTTGACGTAAGACACTTTGGATGGGTTGAAGTTCTGCACGTAGAAGCAAAAGGC [A27T T32A] ?
A) 0.874

Q) What do we get for GAGACCGCAACTGAAAAGTTGTTATCACTCGTCGTAAGACACCTTGGATGGGTTGAAGTTCTGCACGTAGAAGCAAAAGGC [T30C T43C] ?
A) 0.788

Q) What do we get for GAGACCGCAACTGAAAAGTTGTTATCACTCGTCGTAAGACACATTGGATGGGTTGAAGTTCTGCACGTAGAAGCAAAAGGC [T30C T43A] ?
A) 0.809

Q) What do we get for GAGACCGCAACTGAAAAGTTGTTATCACATGTCATAAGACACTTTGGATGGGTTGAAGTTCTGCACGTAGAAGCAAAAGGC [T29A G34A] ?
A) 0.852

Q) What do we get for GAGACCGCAACTGAAAAGTTGTTATAACTTGTCGTAAGACACTTTGGATGGGTTGGAGTTCTGCACGTAGAAGCAAAAGGC [C26A A56G] ?
A) 0.096
